Tested on: M14 melanoma
assay: NCI-60 one-dose screen, 48 h
test-parameters: 10 µM
About 83,000 compounds went through this panel and 20% of them were active in at least one assay; those are over-represented in the sample as a whole. Calls of active or inactive are those of the source. How the source made its calls: active means growth percent below 10; inactive means the rest.
Respond using exactly one of the listed classes: active, inactive

Input line: Tell me the assay call for "COc1cc(-c2nnc(-c3c(-c4ccc(F)cc4)nc4ccccn34)o2)cc(OC)c1OC" please.
Output line: inactive

Input line: Tell me the assay call for "COc1cc(-c2cc(/C=C/C(=O)c3ccc(F)c(F)c3)[nH]n2)cc(OC)c1OC" please.
Output line: inactive

Input line: Tell me the assay call for "CC/C(=C(/c1ccc(OCCN(C)C)cc1)c1ccc(OC(=O)CCC(=O)c2c(C)[nH]c(/C=C3\N=C(c4ccc[nH]4)C=C3OC)c2C)cc1)c1ccccc1" please.
Output line: active

Input line: Tell me the assay call for "N#Cc1ncc(Br)c(NC2CCCCCC2)n1" please.
Output line: inactive

Input line: Tell me the assay call for "CC(=O)c1cc(Br)ccc1O" please.
Output line: inactive

Input line: Tell me the assay call for "Cc1ccc(NC(=O)Nc2nc3ccccc3s2)cc1NC(=O)Nc1nc2ccccc2s1" please.
Output line: inactive

Input line: Tell me the assay call for "S=c1[nH]ccn1-c1c(Cl)cccc1Cl" please.
Output line: inactive

Input line: Tell me the assay call for "O=C1/C(=C/c2ccc([N+](=O)[O-])o2)Oc2ccccc21" please.
Output line: inactive

Input line: Tell me the assay call for "Cc1cc2c(C)c3cc(C)c(N)cc3nc2cc1N" please.
Output line: active

Input line: Tell me the assay call for "C[N+](C)(C)c1ncnc2nc[nH]c12" please.
Output line: inactive

Input line: Tell me the assay call for "Cc1ccc(NC(=O)Nc2cccnc2)cc1NC(=O)Nc1cccnc1" please.
Output line: inactive

Input line: Tell me the assay call for "Nc1nc(N)c2c(ccc3nccc32)[nH]1" please.
Output line: inactive

Input line: Tell me the assay call for "N#CCCN(NC(=O)OCc1ccccc1)C(=O)OCc1ccccc1" please.
Output line: inactive

Input line: Tell me the assay call for CCCCCCCC(C)NCCO (stereo unspecified) please.
Output line: inactive

Input line: Tell me the assay call for "CCN1CCN(c2nc3ccccc3c3c(=O)c4ccccc4sc23)CC1" please.
Output line: active

Input line: Tell me the assay call for "CN(C)CCS(=O)(=O)CCN(C)C" please.
Output line: inactive

Input line: Tell me the assay call for "CS(=O)(=O)Nc1ccc(Nc2c3ccccc3nc3cc(N)ccc23)cc1" please.
Output line: active

Input line: Tell me the assay call for "COC(=O)[C@@H]1[C@H](O)[C@H](C)[C@H](O)[C@@](C)(O)/C=C\C=C(C)C(=O)Nc2c(C)c(OC(C)=O)c3c(c2O)C(=O)C(C)=C2OCOC(=C23)C(C)=C[C@@](C)(O)[C@H](O)[C@@H](C)[C@H]1OC(C)=O" please.
Output line: inactive

Input line: Tell me the assay call for CC(C)=CCc1cc(O)cc2c1OC(C=C(C)C)C1=C2C(=O)C2=C(NCCS2(=O)=O)C1=O (stereo unspecified) please.
Output line: active

Input line: Tell me the assay call for "Cc1cc(Cl)nc(N(CCCNc2ccnc3cc(Cl)ccc23)Cc2cccs2)n1" please.
Output line: active

Input line: Tell me the assay call for "CC(=O)[C@H]1CC[C@H]2[C@@H]3CCC4=CC(=O)C=C[C@]4(C)[C@H]3CC[C@]12C" please.
Output line: inactive

---

Test system: SK-MEL-2 melanoma
assay: NCI-60 one-dose screen, 48 h
test-parameters: 10 µM
About 83,000 compounds went through this panel and 20% of them were active in at least one assay; those are over-represented in the sample as a whole. The source made the active and inactive calls. How the source made its calls: active means growth percent below 10; inactive means the rest.
Respond using exactly one of the listed classes: YES = active, NO = inactive

Input line: Tell me the assay call for "O=C(Nc1nc2ccccc2s1)Nc1ccc([N+](=O)[O-])cc1Cl" please.
Output line: NO

Input line: Tell me the assay call for "c1ccc2c(-c3nc(N4CCOCC4)c4c5c(sc4n3)CCCCCC5)cccc2c1" please.
Output line: NO

Input line: Tell me the assay call for "Cc1cccc(NC2=C(C#N)C(=O)NC3(CCCC3)S2)c1" please.
Output line: NO

Input line: Tell me the assay call for "CC/C(=C(/c1ccc(OCCN(C)C)cc1)c1ccc(OC(=O)CCC(=O)c2c(C)[nH]c(/C=C3\N=C(c4ccc[nH]4)C=C3OC)c2C)cc1)c1ccccc1" please.
Output line: YES

Input line: Tell me the assay call for CCN(CC)CCCC(C)Nc1nc(-c2ccc(OC)cc2)nc2cc(Cl)ccc12 (stereo not given) please.
Output line: NO

Input line: Tell me the assay call for COC(=O)C(C(C[N+](=O)[O-])c1ccccc1)=P(c1ccccc1)(c1ccccc1)c1ccccc1 (stereo not given) please.
Output line: NO

Input line: Tell me the assay call for "O=C(Nc1cccc(Cl)c1)Nc1nccs1" please.
Output line: NO

Input line: Tell me the assay call for "Nc1nccc(Nc2ccccc2)n1" please.
Output line: NO

Input line: Tell me the assay call for "CC12O[C@H](C[C@@H](OC(=O)c3ccccc3)[C@H]1O)n1c3ccccc3c3c4c(c5c6ccccc6n2c5c31)C(=O)NC4=O" please.
Output line: NO

Input line: Tell me the assay call for "CCCCCCc1cc(N=Nc2ccc(S(=O)(=O)Nc3cc(C)nc(C)n3)cc2)c(O)cc1O" please.
Output line: NO

Input line: Tell me the assay call for "Cc1cccc2c(NCCN(C)C)c3cccc(C(=O)NCCN(C)C)c3nc12" please.
Output line: YES

Input line: Tell me the assay call for "CCCCOc1ccc(NC(=O)Nc2nnc(C)s2)cc1" please.
Output line: NO

Input line: Tell me the assay call for CC(C)=CCc1cc(O)cc2c1OC(C=C(C)C)C1=C2C(=O)C2=C(NCCS2(=O)=O)C1=O (stereo not given) please.
Output line: YES

Input line: Tell me the assay call for "C#Cc1ccc(-n2c(/C=C/c3ccc4ccccc4c3)nc3ncccc3c2=O)cc1" please.
Output line: YES

Input line: Tell me the assay call for "COc1ccc(-c2nc3sc(-c4ccc(OC)cc4)c(-c4ccc(OC)cc4)n3c2/C=C/c2ccc(C(C)C)cc2)cc1" please.
Output line: NO

Input line: Tell me the assay call for "COc1ccc(-c2nc(-c3nc4cc(Cl)c(Cl)cc4[nH]3)c3ccccn23)cc1" please.
Output line: NO

Input line: Tell me the assay call for "CCCCCCCCCCCC[n+]1ccc(C(N)=O)cc1" please.
Output line: NO

Input line: Tell me the assay call for "COc1ccc(OC)c(/C=C/c2nc(SCc3ccccc3)n(-c3ccc(Cl)cc3)n2)c1" please.
Output line: NO

Input line: Tell me the assay call for "C=C(Cl)[C@@](Cl)(CBr)CC[C@@H](Br)C(C)(C)Cl" please.
Output line: YES

Input line: Tell me the assay call for "CS(=O)(=O)Nc1ccc(Nc2c3ccccc3nc3cc(N)ccc23)cc1" please.
Output line: NO

---

Test system: OVCAR-5 ovarian
assay: NCI-60 one-dose screen, 48 h
test-parameters: 10 µM
The panel holds about 83,000 compounds, 20% with a hit somewhere; the sample as a whole holds those more often. Calls of active or inactive are those of the source. Rule for the calls: active = growth percent below 10; inactive = the rest.
Respond using exactly one of the listed classes: YES for active, NO for inactive

Input line: Tell me the assay call for "COc1ccc2c(c1)O/C(=C\c1ncc([N+](=O)[O-])n1C)C2=O" please.
Output line: YES

Input line: Tell me the assay call for "CCOC(=O)N1C/C(=C/c2ccc(Cl)cc2)C(=O)/C(=C/c2ccc(Cl)cc2)C1" please.
Output line: NO

Input line: Tell me the assay call for "ClC(Cl)(Cl)c1nc2nccnc2[nH]1" please.
Output line: NO

Input line: Tell me the assay call for "O=C(Nc1cccc(-n2cc(-c3ccncc3)c(-c3ccc(O)c(Cl)c3)n2)c1)c1cccc(C(F)(F)F)c1" please.
Output line: NO

Input line: Tell me the assay call for "Cc1cc(O)c(C(C)(C)C)cc1Sc1cc(C(C)(C)C)c(O)cc1C" please.
Output line: NO

Input line: Tell me the assay call for "COc1ccc(-c2nc(-c3nc4ccc(OC)cc4[nH]3)cc3c2[nH]c2ccccc23)cc1" please.
Output line: NO

Input line: Tell me the assay call for "CC/C(=C(/c1ccc(OCCN(C)C)cc1)c1ccc(OC(=O)CCC(=O)c2c(C)[nH]c(/C=C3\N=C(c4ccc[nH]4)C=C3OC)c2C)cc1)c1ccccc1" please.
Output line: NO

Input line: Tell me the assay call for "COc1ccc(/C=C2/CN(CCC#N)C/C(=C\c3ccc(OC)cc3)C2=O)cc1" please.
Output line: NO

Input line: Tell me the assay call for "CN(C)c1ccc(N=C2C=CC(=O)c3ccccc32)cc1" please.
Output line: NO

---

So I've got a bunch of compounds here, and I need their growth values.
Test system: ACHN renal
assay: NCI-60 one-dose screen, 48 h (100 = growth as untreated, 0 = no growth, -100 = all killed)
test-parameters: 10 µM
Method: Growth inhibition of the ACHN human tumor cell line is measured as a screen for anti-cancer activity. Cells are grown in 96 well plates and exposed to the test compound for 48 hours. Compounds are tested at a single concentration, which is 10^-5 M for most compounds. The reported endpoint is percent growth (GI% or GIPRCNT), where numbers from 0 - 100% represent growth inhibition, and numbers from -100% - 0 represent cell death. For example, a value of 40 represents 60% growth inhibition. […]
The panel holds about 83,000 compounds, 20% with a hit somewhere; the sample as a whole holds those more often.
Expressed in %, but write only the number.

// growth (ACHN renal) for "COc1cc(Nc2ccnc(NCCNc3ccnc4cc(Cl)ccc34)n2)cc(OC)c1" = 30.7

// growth (ACHN renal) for "Clc1ccccc1N=Cc1ccc2c(c1)OCO2" = 111

// growth (ACHN renal) for COc1ccc(-c2nsc3c2NC(=O)CC3c2ccc(F)cc2)cc1 (stereo unspecified) = 47.1

// growth (ACHN renal) for "COc1ccc(Nc2ncnc3c2c(SC)nn3-c2ccccc2)cc1" = 100

// growth (ACHN renal) for "COc1ccc2c(c1)O/C(=C\c1ccc([N+](=O)[O-])s1)C2=O" = 25.4

// growth (ACHN renal) for O=C1C(c2ccccc2)C2C=CC(C2)N1O (stereo unspecified) = 107
